- Test system: KRAS G12C-dependent Ba/F3 cells
- Test Method Notes: Ba/F3 proliferation assay, KRAS G12C
- Type: cell-based
- Test Conditions: Mus musculus, BaF3, 72 h, AlamarBlue
pIC50: −log10 of the molar value.
Readout Type: pIC50

Molecule: C[C@H](Oc1cc(-n2ccc(C3(O)COC3)n2)nc(-c2noc3c2CCC[C@@]32CCCc3sc(N)c(C#N)c32)n1)[C@@H]1CCCN1C [II-189]
Target Entity: KRAS G12C-dependent Ba/F3 cells
Test Result: 8.05
--
Molecule: C[C@H](Oc1cc(N2CCNC3(COC3)C2)nc(-c2onc3c2CCC[C@@]32CCCc3sc(N)c(C#N)c32)n1)[C@@H]1CCCN1C [I-4]
Target Entity: KRAS G12C-dependent Ba/F3 cells
Test Result: 7.16
--
Molecule: C[C@H](Oc1cc(N2CCN(C)CC2)nc(-c2noc3c2CCC[C@@]32CCCc3sc(N)c(C#N)c32)n1)[C@@H]1CCCN1[C@@H]1CCOC1 [II-39]
Target Entity: KRAS G12C-dependent Ba/F3 cells
Test Result: 6.71
--
Molecule: C[C@H](Oc1cc(-n2ccc(C(=O)N(C)C3COC3)n2)nc(-c2onc3c2CCC[C@@]32CCCc3sc(N)c(C#N)c32)n1)[C@@H]1CCCN1C [I-60]
Target Entity: KRAS G12C-dependent Ba/F3 cells
Test Result: 8.30
--
Molecule: C[C@H](Oc1cc(-n2ccnc2)nc(-c2noc3c2CCC[C@@]32CCCc3sc(N)c(C#N)c32)n1)[C@@H]1CCCN1C [II-69]
Target Entity: KRAS G12C-dependent Ba/F3 cells
Test Result: 7.74
--
Molecule: C[C@H](Oc1cc(-c2ccc(N)nc2)nc(-c2noc3c2CCC[C@@]32CCCc3sc(N)c(C#N)c32)n1)[C@@H]1CCCN1C [II-101]
Target Entity: KRAS G12C-dependent Ba/F3 cells
Test Result: 7.29

---

Each entry below carries its recorded pIC50.
- Target Entity: KRAS (G12D)::SOS1 (Homo sapiens (Human), UniProt P01116, G12D)
- Sequence (P01116 other isoform, or with tags, fused parts or gaps G12D): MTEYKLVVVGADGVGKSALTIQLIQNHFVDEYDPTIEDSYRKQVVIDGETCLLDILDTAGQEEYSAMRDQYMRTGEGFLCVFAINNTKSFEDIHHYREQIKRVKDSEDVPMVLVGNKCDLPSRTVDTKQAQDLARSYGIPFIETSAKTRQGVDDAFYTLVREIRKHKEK
- Test Method Notes: KRAS::SOS1 AlphaScreen binding assay, KRAS G12D
pIC50: −log10 of the molar value.
Readout Type: pIC50

Molecule: C[C@H](Oc1cc(-c2ccn(C3COC3)n2)nc(-c2noc3c2CCC[C@@]32CCCc3sc(N)c(C#N)c32)n1)[C@@H]1C[C@H](F)CN1C [II-83]
Test Result: 7.70
--
Molecule: CNC(=O)c1ccn(-c2cc(O[C@@H](C)[C@@H]3CCCN3C)nc(-c3noc4c3CCC[C@@]43CCCc4sc(N)c(C#N)c43)n2)n1 [II-20]
Test Result: 8.70
--
Molecule: Cc1ccc(-c2cc(O[C@@H](C)[C@@H]3CCCN3C)nc(-c3onc4c3CCC[C@@]43CCCc4sc(N)c(C#N)c43)n2)cn1 [I-28]
Test Result: 8.00
--
Molecule: C[C@H](Oc1cc(-n2ccc(C(=O)NC3(C)COC3)n2)nc(-c2noc3c2CCC[C@@]32CCCc3sc(N)c(C#N)c32)n1)[C@@H]1CCCN1C [II-26]
Test Result: 8.70
--
Molecule: C[C@H](Oc1cc(N2CCN(C)C3(COC3)C2)nc(-c2noc3c2CCC[C@@]32CCCc3sc(N)c(C#N)c32)n1)[C@@H]1C[C@@H](F)CN1C [II-148]
Test Result: 9.00
--
Molecule: C[C@H](Oc1cc(N2CCNC3(COC3)C2)nc(-c2noc3c2CCC[C@@]32CCCc3sc(N)c(C#N)c32)n1)[C@@H]1CCCN1C [II-31]
Test Result: 9.00
